compounds and their reported log10 of EC50
# measured.on: HCV NS5B genotype 1b (Hepatitis C virus genotype 1b, UniProt Q9WMX2)
# Construct: The protein was expressed with a 21 amino acid C-terminal deletion to remove transmembrane domain; expressed in transfected cells; host or cells: Huh-7
# assay.explanation: 3D-SCREEN assay (NS5B 3D-Screen platform, luciferase reporter gene)
# Format: cell-based
# measurement.conditions: EC50_3DS_NS5B, Table 1, 3D-SCREEN assay results; Huh-7 cells, 24 hours with compound, firefly luciferase reporter
reported.metric: log10 of EC50 (log10 of the value in µM)

Cc1ccc(N2C(=O)C([O-])=C(C(=O)c3ccc(C(C)C)cc3)C2c2ccc(C(C)C)cc2)cn1.[Na+] (stereo not shown)	0.48
Cc1ccc(N2C(=O)C(O)=C(C(=O)c3ccc(-c4ccccc4)cc3)C2c2ccc(OC(F)(F)F)cc2)nn1 (stereo not shown)	-0.30
Cc1ccc(C(=O)C2=C(O)C(=O)N(c3ccc(C)nn3)C2c2cccc(OC(C)C)c2)cc1 (stereo not shown)	1.00
Cc1ccc(N2C(=O)C(O)=C(C(=O)c3ccc(N(C)C)cc3)C2c2ccc(OC(F)(F)F)cc2)nn1 (stereo not shown)	0.00
Cc1ccc(C(=O)C2=C(O)C(=O)N(c3ccc(C)cn3)C2c2ccc(C(C)C)cc2)cc1 (stereo not shown)	0.85
Cc1ccc(C(=O)C2=C(O)C(=O)N(c3cccnn3)C2c2ccc(C(C)C)cc2)cc1 (stereo not shown)	0.85
Cc1ccc(N2C(=O)C(O)=C(C(=O)c3ccc(N4CCOCC4)cc3)C2c2ccc(OC(F)(F)F)cc2)nn1 (stereo not shown)	0.30

----------
reported.metric: melting point (°C)

Cc1ccc(N2C(=O)C(O)=C(C(=O)c3ccc(N4CCOCC4)cc3)C2c2ccc(OC(F)(F)F)cc2)nn1 (centres unmarked)	234
Cc1ccc(N2C(=O)C(O)=C(C(=O)c3ccc(C(C)C)cc3)C2c2ccc(Cn3cccn3)cc2)nn1 (centres unmarked)	263
Cc1ccc(C(=O)C2=C(O)C(=O)N(c3ccc(C)nn3)C2c2ccc(OC(F)(F)F)cc2)cc1 (centres unmarked)	269
Cc1ccc(N2C(=O)C(O)=C(C(=NOCC(=O)O)c3ccc(C(C)C)cc3)C2c2ccc(C(C)C)cc2)nn1 (centres unmarked)	234

----------
Entries annotated with measured melting point
reported.metric: melting point (°C)

Cc1ccc(N2C(=O)C(O)=C(C(=O)c3ccc(C(C)C)cc3)[C@H]2c2ccc(C(F)(F)F)cc2)nn1	251
Cc1ccc(N2C(=O)C(O)=C(C(=O)c3ccc(OC(F)(F)F)cc3)C2c2ccc(Cn3cncn3)cc2)nn1 (centres unmarked)	224
Cc1ccc(N2C(=O)C(O)=C(C(=O)c3cccc(Cl)c3)C2c2ccc(C(C)C)cc2)nn1 (centres unmarked)	271
Cc1ccc(N2C(=O)C(O)=C(C(=O)c3ccc(C(C)C)cc3)C2c2ccc(-c3nnc(C)o3)cc2)nn1 (centres unmarked)	293
Cc1ccc(N2C(=O)C(O)=C(C(=O)c3ccc(C(C)C)cc3)[C@@H]2c2ccc(OC(F)(F)F)cc2)nn1	221

----------
# measured.on: HCV NS5B genotype 1b (Hepatitis C virus genotype 1b)
# Construct: The protein was expressed with a 21 amino acid C-terminal deletion to remove transmembrane domain; expressed in transfected cells; host or cells: Huh-7
# assay.explanation: 3D-SCREEN assay (NS5B 3D-Screen platform, luciferase reporter gene)
# Format: cell-based
# measurement.conditions: EC50_3DS_NS5B, Table 2, titled Replicon assay results
reported.metric: EC50

Cc1ccc(N2C(=O)C(O)=C(C(=O)c3ccc(C(C)C)cc3)[C@@H]2c2ccc(OC(F)(F)F)cc2)nn1 [Example 189]	< 10 µM
Cc1ccc(N2C(=O)C(Cl)=C(C(=O)c3ccc(C(C)C)cc3)C2c2ccc(OC(F)(F)F)cc2)nn1 (stereo not drawn) [Example 138]	< 10 µM
Cc1ccc(N2C(=O)C(O)=C(C(=O)c3ccc(C4CCCCC4)cc3)C2c2ccc(OC(F)(F)F)cc2)nn1 (stereo not drawn) [Example 125]	< 10 µM
Cc1ccc(N2C(=O)C(NS(C)(=O)=O)=C(C(=O)c3ccc(C(C)C)cc3)[C@H]2c2ccc(OC(F)(F)F)cc2)nn1 [Example 198]	< 1 µM
Cc1ccc(N2C(=O)C(O)=C(C(=O)c3ccc(OC(F)(F)F)cc3)C2c2ccc(OC(C)C)nc2)nn1 (stereo not drawn) [Example 169]	< 1 µM
Cc1ccc(N2C(=O)C(O)=C(C(=O)c3ccc(OC(F)(F)F)cc3)C2c2ccc(OC(F)(F)F)cc2)nn1 (stereo not drawn) [Example 96]	< 1 µM
Cc1ccc(N2C(=O)C(O)=C(C(=O)c3ccc(OC(C)C)cc3)C2c2ccc(OC(F)(F)F)cc2)nn1 (stereo not drawn) [Example 115]	< 10 µM
Cc1ccc(N2C(=O)C(O)=C(C(=O)c3ccc(C(C)C)cc3)C2c2ccc(Cl)cc2)nn1 (stereo not drawn) [Example 87]	< 10 µM
Cc1ccc(N2C(=O)C(O)=C(C(=O)c3ccc(C(C)C)cc3)C2c2ccc(C(C)(F)F)nc2)nn1 (stereo not drawn) [Example 187]	< 1 µM
Cc1ccc(N2C(=O)C(O)=C(C(=O)c3ccc(C(C)(C)C)cc3)C2c2ccc(OC(F)(F)F)cc2)nn1 (stereo not drawn) [Example 123]	< 1 µM
Cc1ccc(N2C(=O)C(O)=C(C(=O)c3ccc(C(C)C)cc3)C2c2ccc(OC(F)F)cc2)nn1 (stereo not drawn) [Example 88]	< 1 µM
COc1ccc(C(=O)C2=C(O)C(=O)N(c3ccc(C)nn3)C2c2ccc(OC(C)C)cc2)cc1 (stereo not drawn) [Example 100]	< 10 µM
Cc1ccc(N2C(=O)C(O)=C(C(=O)c3ccc(C(C)C)cc3)C2c2ccc(C(C)(F)F)cc2)nn1 (stereo not drawn) [Example 158]	< 0.1 µM
Cc1ccc(N2C(=O)C(O)=C(C(=O)c3ccc(C(F)(F)F)nc3)C2c2ccc(OC(F)(F)F)cc2)nn1 (stereo not drawn) [Example 126]	< 10 µM
Cc1ccc(N2C(=O)C(O)=C(C(=O)c3ccc(C(C)C)cc3)[C@H]2c2ccc(C(F)(F)F)cc2)nn1 [Example 191]	< 0.1 µM
